- COND: in methyl acetate, 278.15 K
MEASURED_ATTRIBUTE: solubility (mole fraction)
// return a plain number; no unit text

For reference, reported solubility (mole fraction) for O=C(NC[C@H]1CN(c2ccc(N3CCOCC3=O)cc2)C(=O)O1)c1ccc(Cl)s1 stands at 4.05e-05

* * *

- COND: in acetone, 293.15 K
MEASURED_ATTRIBUTE: solubility (mole fraction)
// return a plain number; no unit text

For reference, reported solubility (mole fraction) for O=C(NC[C@H]1CN(c2ccc(N3CCOCC3=O)cc2)C(=O)O1)c1ccc(Cl)s1 stands at 0.000111

* * *

- COND: in 3-pentanone, 313.15 K
MEASURED_ATTRIBUTE: solubility (mole fraction)
// return a plain number; no unit text

For reference, reported solubility (mole fraction) for O=C(NC[C@H]1CN(c2ccc(N3CCOCC3=O)cc2)C(=O)O1)c1ccc(Cl)s1 stands at 0.000139

Numbers sourced from BigSolDB 2.1.
